This section presents molecules with their documented inhibition at 100 µM values.
biological target: UniProtKB P0DTD1; test: biochemical; conditions: read-out: %inhibition
Where a name gives a salt, the structure may show the parent alone.
State the answer as a number, implicitly in %.

The following molecules have reported results that may help.
* CNC(=O)c1ccc(Nc2ncc(C(F)(F)F)c(NCc3nccnc3N(C)S(C)(=O)=O)n2)cc1 [Defactinib (VS-6063, PF-04554878)] | 0
* C[C@@H]1C[C@H]2[C@@H]3CCC4=CC(=O)C=C[C@]4(C)[C@@]3(Cl)[C@@H](O)C[C@]2(C)[C@@]1(OC(=O)c1ccco1)C(=O)CCl [Mometasone furoate] | 7.49
* NC(=O)N1c2ccccc2CC(=O)c2ccccc21 [Oxcarbazepine] | 0
* Cc1cccc(C)c1OCC(C)N (stereo not shown) [Mexiletine HCl] | 9.05
* N[C@@H](C(=O)N[C@@H]1C(=O)N2C(C(=O)O)=C(Cl)CS[C@H]12)c1ccccc1 [Cefaclor] | 0

## Task Need inhibition at 100 µM of CCC(C)(C)c1ccc(CC(C)CN2C[C@@H](C)O[C@@H](C)C2)cc1 (stereo partly shown) [Amorolfine HCl] , thanks.
## Result 6.98

## Task Need inhibition at 100 µM of C=CC(=O)Nc1cccc(Nc2nc(Nc3ccc(N4CCN(C(C)=O)CC4)cc3OC)ncc2C(F)(F)F)c1 [Rociletinib (CO-1686, AVL-301)] , thanks.
## Result 0

## Task Need inhibition at 100 µM of NS(=O)(=O)c1cc(Cl)c(Cl)c(S(N)(=O)=O)c1 [Dichlorphenamide (Diclofenamide)] , thanks.
## Result 3.01

## Task Need inhibition at 100 µM of NC12CC3CC(CC(C3)C1)C2 [Amantadine HCl] , thanks.
## Result 0

## Task Need inhibition at 100 µM of c1cn2cc(-c3ccc4cn[nH]c4c3)nc(Nc3ccc(N4CCOCC4)cc3)c2n1 [Entospletinib (GS-9973)] , thanks.
## Result 29.5

----------
molecular target: SARS-CoV-2 Mac1 (Severe acute respiratory syndrome coronavirus 2); assay: biochemical; settings: read-out: %inhibition
Where a name gives a salt, the structure may show the parent alone.
MEASURED ATTRIBUTE: inhibition at 100 µM (%)
State the answer as a number, implicitly in %.

* CCCCC(=O)N(Cc1ccc(-c2ccccc2-c2nnn[nH]2)cc1)[C@H](C(=O)O)C(C)C | 31.1
* Cc1cnc(C(=O)N[C@H]2CCCCC/C=C\[C@@H]3C[C@@]3(C(=O)NS(=O)(=O)C3CC3)NC(=O)[C@@H]3C[C@@H](Oc4nc5ccccc5c5ccccc45)CN3C2=O)cn1 | 0
* CO/N=C1\C[C@]2(C[C@@H]3C[C@@H](C/C=C(\C)C[C@@H](C)/C=C/C=C4\CO[C@@H]5[C@H](O)C(C)=C[C@@H](C(=O)O3)[C@]45O)O2)O[C@H](/C(C)=C/C(C)C)[C@H]1C | 7.63
* NC(=O)N1c2ccccc2C=Cc2ccccc21 [Carbamazepine] | 0
* O=S(=O)(O)CCSSCCS(=O)(=O)O | 22.1

## Task Need inhibition at 100 µM of CO[C@@]1(NC(=O)Cc2cccs2)C(=O)N2C(C(=O)O)=C(COC(N)=O)CS[C@@H]21 [Cefoxitin sodium] , thanks.
## Result 0

## Task Need inhibition at 100 µM of O=C(c1ccc(OCCN2CCCCC2)cc1)c1c(-c2ccc(O)cc2)sc2cc(O)ccc12 [Raloxifene HCl] , thanks.
## Result 63.1

## Task Need inhibition at 100 µM of CCN1CCC[C@H]1CNC(=O)c1cc(S(N)(=O)=O)ccc1OC [Levosulpiride] , thanks.
## Result 0

## Task Need inhibition at 100 µM of N=C(N)N/N=C/c1c(Cl)cccc1Cl [Guanabenz Acetate] , thanks.
## Result 0

## Task Need inhibition at 100 µM of CN1C(CCl)Nc2cc(Cl)c(S(N)(=O)=O)cc2S1(=O)=O (stereo not shown) [Methyclothiazide] , thanks.
## Result 0

## Task Need inhibition at 100 µM of `Cc1c(O)c(=O)ccn1C` , thanks.
## Result 0

## Task Need inhibition at 100 µM of CCOC(=O)/C=C(C)/C=C/C=C(C)/C=C/c1c(C)cc(OC)c(C)c1C [Etretinate] , thanks.
## Result 24.9

## Task Need inhibition at 100 µM of CCCCCCCCCCCCCCCC(=O)O[C@@H]1[C@@H](O)[C@@H](O)[C@@H]([C@H](NC(=O)[C@@H]2C[C@@H](CCC)CN2C)[C@H](C)Cl)O[C@@H]1SC [Clindamycin palmitate HCl] , thanks.
## Result 22.9

## Task Need inhibition at 100 µM of `CC(C)(S)[C@@H](N)C(=O)O` , thanks.
## Result 0.561

## Task Need inhibition at 100 µM of `CN1CC(=O)N2[C@H](c3ccc4c(c3)OCO4)c3[nH]c4ccccc4c3C[C@@H]2C1=O` , thanks.
## Result 20.7

## Task Need inhibition at 100 µM of CCOC(=O)[C@H](CCc1ccccc1)N[C@@H](C)C(=O)N1Cc2ccccc2C[C@H]1C(=O)O [Quinapril HCl] , thanks.
## Result 25

----------
biological target: SARS-CoV-2 Mac1 (Severe acute respiratory syndrome coronavirus 2); experiment: biochemical; details: read-out: %inhibition
MEASURED ATTRIBUTE: inhibition at 100 µM (%)
State the answer as a number, implicitly in %.

The following compounds have reported results that may help.
- Nc1cc(N2CCCCC2)nc(N)[n+]1OS(=O)(=O)[O-] [Minoxidil sulphate]: 19
- CC1(C)[C@@H](OC(=O)CCC(=O)O)CC[C@]2(C)[C@H]3C(=O)C=C4[C@@H]5C[C@@](C)(C(=O)O)CC[C@]5(C)CC[C@@]4(C)[C@]3(C)CC[C@@H]12 [Carbenoxolone Sodium]: 4.8

Now examine the next entry.
## Task Query the reported inhibition at 100 µM for SARS-CoV-2 Mac1 (Severe acute respiratory syndrome coronavirus 2); item: `C[C@H](CCC(=O)O)[C@H]1CC[C@H]2[C@@H]3[C@@H](O)C[C@@H]4C[C@H](O)CC[C@]4(C)[C@H]3CC[C@]12C`
## Result 0

----------
This section presents compounds with their documented inhibition at 100 µM values.
biological target: SARS-CoV-2 Mac1 (Severe acute respiratory syndrome coronavirus 2, UniProt P0DTD1); assay: biochemical; conditions: read-out: %inhibition
State the answer as a number, implicitly in %.

The following compounds have reported results that may help.
* CCOC(=O)C1=C[C@]2(CC)CCCN3CCc4c(n1c1ccccc41)[C@@H]32 | 1.15
* CN[C@H]1C[C@@H](N)[C@H](O)[C@@H](O[C@@H]2O[C@H](CO)[C@H](O)[C@@H]3OC4(O[C@H]23)O[C@H]([C@@H](N)CO)[C@H](O)[C@H](O)[C@H]4O)[C@@H]1O (stereo partly shown) | 0
* CN(C)CC(c1ccc(O)cc1)C1(O)CCCCC1 (stereo not shown) [Desvenlafaxine Succinate] | 7.7

Now examine the next entry.
## Task Need inhibition at 100 µM of CC(O)Cn1cnc2c1c(=O)n(C)c(=O)n2C (stereo not shown) , thanks.
## Result 1.62

----------
This section presents compounds with their documented inhibition at 100 µM values.
target: SARS-CoV-2 Mac1 (Severe acute respiratory syndrome coronavirus 2, UniProt P0DTD1); experiment: biochemical; conditions: read-out: %inhibition
Structures can show the parent of a compound that is named as a salt.
State the answer as a number, implicitly in %.

## Task Need inhibition at 100 µM of Oc1ccc(O)cc1 [Hydroquinone] , thanks.
## Result 7.86

## Task Need inhibition at 100 µM of CC1(C)OC[C@@H](COC(=O)CCc2ccc(OC[C@@H](O)CNCCNC(=O)N3CCOCC3)cc2)O1 [Landiolol hydrochloride] , thanks.
## Result 18

## Task Need inhibition at 100 µM of NS(=O)(=O)c1cc(C(=O)O)c(NCc2ccco2)cc1Cl [Furosemide] , thanks.
## Result 0

## Task Need inhibition at 100 µM of CO[C@H]1C[C@@H]2CC[C@@H](C)[C@@](O)(O2)C(=O)C(=O)N2CCCC[C@H]2C(=O)O[C@H]([C@H](C)C[C@@H]2CC[C@@H](OC(=O)C(C)(CO)CO)[C@H](OC)C2)CC(=O)[C@H](C)/C=C(\C)[C@@H](O)[C@@H](OC)C(=O)[C@H](C)C[C@H](C)/C=C/C=C/C=C/1C [Temsirolimus (CCI-779, NSC 683864)] , thanks.
## Result 14.6

## Task Need inhibition at 100 µM of CC(O)(P(=O)(O)O)P(=O)(O)O [Etidronate] , thanks.
## Result 0

## Task Need inhibition at 100 µM of O=C1N=C(O)NC1(c1ccccc1)c1ccccc1 [Phenytoin Sodium] , thanks.
## Result 16

## Task Need inhibition at 100 µM of O=C1CCC(N2C(=O)c3ccccc3C2=O)C(=O)N1 (stereo not drawn) [Thalidomide] , thanks.
## Result 14

## Task Need inhibition at 100 µM of CCCCOC(=O)c1ccc(O)cc1 [Butylparaben] , thanks.
## Result 0

## Task Need inhibition at 100 µM of C[C@H]1O[C@H](O[C@H]2[C@H](O)[C@@H](O)[C@@H](O[C@H]3[C@H](O)[C@@H](O)C(O)O[C@@H]3CO)O[C@@H]2CO)[C@H](O)[C@@H](O)[C@@H]1N[C@H]1C=C(CO)[C@@H](O)[C@H](O)[C@H]1O (stereo partly drawn) [Acarbose] , thanks.
## Result 16

## Task Need inhibition at 100 µM of COc1ccc(CN2CCN(C(c3ccc(F)cc3)c3ccc(F)cc3)CC2)c(OC)c1OC [Lomerizine 2HCl] , thanks.
## Result 12.8

## Task Need inhibition at 100 µM of CCCCCCc1ccc(O)cc1O [Hexylresorcinol] , thanks.
## Result 0

## Task Need inhibition at 100 µM of NCCCC[C@H](N)C(=O)O [L-Lysine hydrochloride] , thanks.
## Result 9.1

## Task Need inhibition at 100 µM of Cc1ccc(-c2cc(C(F)(F)F)nn2-c2ccc(S(N)(=O)=O)cc2)cc1 [Celecoxib] , thanks.
## Result 10.4

## Task Need inhibition at 100 µM of CC(CCc1ccc(O)cc1)NCC(O)c1ccc(O)cc1 (stereo not drawn) [Ractopamine HCl] , thanks.
## Result 0

## Task Need inhibition at 100 µM of O=c1cccc2n1C[C@@H]1CNC[C@H]2C1 [Cytisine] , thanks.
## Result 0
